- Test system: B16 mouse melanoma cells
- test-details: cell viability in the B16 cell-based assay (Viability, B16 IC50)
- condition-context: Mus musculus, B16, read-out: Viability, B16 IC50
pIC50: −log10 of the molar value.
What pIC50 was measured for each of the following?

# compound, pIC50
measured = [
    ("CC1(COc2ccc(-c3ccc(C(C)(C)NC(=O)OC4CN5CCC4CC5)cc3)cc2)COC1 (centres unmarked) [Example 191]", 5.28),
    ("COCCCOc1ccc(-c2ccc(C(C)(C)NC(=O)OC3CN4CCC3CC4)cc2)cc1 (centres unmarked) [Example 172]", 5.08),
    ("CC(C)(NC(=O)OC1CN2CCC1CC2)c1ccc(C(=O)N2CCN(c3ccccc3)CC2)cc1 (centres unmarked) [Example 304]", "≤ 5.00"),
    ("COCCCOc1cnc(-c2cccc(C(C)(C)NC(=O)OC3CN4CCC3CC4)c2)cn1 (centres unmarked) [Example 315]", "≤ 5.00"),
    ("CC(C)(NC(=O)OC1CN2CCC1CC2)c1ccc(-c2ccc(OCCCC#N)cc2)cc1 (centres unmarked) [Example 189]", "≤ 5.00"),
    ("CN(C)C(=O)c1ccc(Oc2ccc(C(C)(C)NC(=O)OC3CN4CCC3CC4)cc2)cc1 (centres unmarked) [Example 283]", "≤ 5.00"),
    ("COCCOCc1ccc(-c2ccc(C(C)(C)NC(=O)OC3CN4CCC3CC4)cc2)cc1 (centres unmarked) [Example 197]", "≤ 5.00"),
]

Next compound, pIC50 to be filled in.
Lab note: CN(C)C(=O)c1ccc(-c2ccc(C(C)(C)NC(=O)OC3CN4CCC3CC4)cc2)cc1 (centres unmarked) [Example 257] gave pIC50 of ≤ 5.00

* * *

Give pIC50 for every item shown.
- System: GM3 expression on the cell surface, B16 mouse melanoma cells
- test-details: cell based phenotypic assay, cell surface GM3 by antibody mediated immunofluorescence, B16 (GM3 B16 IC50)
- condition-context: Mus musculus, B16 mouse melanoma cells; 50% inhibition of GM3 expression on the cell surface; read-out: GM3 B16 IC50
- Experimental: The cell based assay was performed in two different cell types, B16 and C32. Cell viability was also assessed in the second, cell-based assay. The “Compound Number” in the table corresponds to the compound disclosed in the Example of the same number. […] The results of the cell based assays (performed in two different cell systems, i.e. B16 mouse melanoma or C32 human melanoma cells) are expressed as “GM3 B16 IC50” or “GM3 C32 IC50” for the B16 assay and the C32 assay, respectively. […]
Numbers only, as −log10 of the molar value.

Here is how some compounds turned out for pIC50.
# compound, target, experimental-endpoint, value-measured
measured = [
    ("CCC1(NC(=O)NC(C)(C)c2ccc(-c3ccc(S(=O)(=O)CCC(C)(C)C)cc3)cc2)CN2CCC1CC2 (stereo not shown)", "GM3 expression on the cell surface, B16 mouse melanoma cells", "pIC50", 8.37),
    ("COCCCOc1ccc(-c2ccnc(N3CCC(F)(C(=O)NC4(C)CN5CCC4CC5)CC3)n2)cc1 (stereo not shown)", "GM3 expression on the cell surface, B16 mouse melanoma cells", "pIC50", 7.23),
    ("COCCCOc1ccc(-c2nc(N3CCC(C(=O)NC4(C)CCN5CCC4CC5)CC3)ncc2F)cc1 (stereo not shown)", "GM3 expression on the cell surface, B16 mouse melanoma cells", "pIC50", 7.98),
]

Kindly review the next compound as well.
// compound COCCOCc1ccc(-c2nc(N3CCC(C(=O)NC4(C)CN5CCC4CC5)CC3)ncc2F)cc1 (stereo not shown) , assay GM3 expression on the cell surface, B16 mouse melanoma cells, pIC50 value: 6.82

* * *

- target: glucosylceramide synthase (Homo sapiens, UniProt Q16739)
- Construct: Microsomes were isolated from A375 human melanoma cells; endogenous in cells
- Sequence (Q16739 whole entry): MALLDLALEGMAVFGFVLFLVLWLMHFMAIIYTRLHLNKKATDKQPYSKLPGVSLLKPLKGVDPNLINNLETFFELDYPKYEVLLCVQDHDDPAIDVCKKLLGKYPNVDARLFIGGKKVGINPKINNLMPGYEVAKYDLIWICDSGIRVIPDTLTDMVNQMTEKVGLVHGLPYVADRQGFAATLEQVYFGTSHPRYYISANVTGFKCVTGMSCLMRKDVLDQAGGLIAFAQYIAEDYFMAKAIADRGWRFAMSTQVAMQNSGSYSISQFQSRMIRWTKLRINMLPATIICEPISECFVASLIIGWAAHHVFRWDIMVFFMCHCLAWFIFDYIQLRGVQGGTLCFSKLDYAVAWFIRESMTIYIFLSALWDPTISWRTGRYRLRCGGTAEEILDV
- test-details: microsomal assay measuring conversion of ceramide to glucosylceramide by HPLC (GCS IC50)
- condition-context: concentration causing 50% inhibition of glucosylceramide synthase activity
For each of the compounds below, state its pIC50.
Give bare numbers, as −log10 of the molar value.

// solved cases for pIC50 follow
# compound, target, pIC50
data = [
    ("COCCOCc1ccc(-c2ccc(C(C)(C)NC(=O)NC3(C)CCN4CCC3CC4)cc2)cc1 (centres unmarked)", "glucosylceramide synthase (Homo sapiens, UniProt Q16739)", 7.86),
    ("COCCCOc1ccc(-c2ccc(C(C)(C)NC(=O)NC3(C)CN4CCC3CC4)cc2)cc1 (centres unmarked)", "glucosylceramide synthase (Homo sapiens, UniProt Q16739)", 8.70),
    ("COCCCc1ccc(-c2ccc(C(C)(C)NC(=O)NC3(C)CN4CCC3CC4)cc2)cc1 (centres unmarked)", "glucosylceramide synthase (Homo sapiens, UniProt Q16739)", 8.77),
]

Dear colleague, could you please provide pIC50 for the compounds listed below?
1. CNC(=O)c1ccc(-c2ccc(C(C)(C)NC(=O)OC3CCN4CCC3CC4)cc2)cc1 (centres unmarked)
2. CC1(NC(=O)C2CCN(c3cncc(-c4ccc(F)cc4)c3)CC2)CCN2CCC1CC2 (centres unmarked)
3. CC(C)(C)CCS(=O)(=O)c1ccc(-c2ccc(C(C)(C)NC(=O)OC3CN4CCC3CC4)cc2)cc1 (centres unmarked)
4. COCc1ccc(-c2ccnc(N3CCC(C)(C(=O)NC4(C)CCN5CCC4CC5)CC3)n2)cc1 (centres unmarked)
5. CC1(NC(=O)C2(F)CCN(c3nccc(OCc4ccc(F)cc4)n3)CC2)CCN2CCC1CC2 (centres unmarked)

Ans:
1: 6.22; 2: 8.32; 3: 8.73; 4: 8.15; 5: 9.26

* * *

- target: glucosylceramide synthase (Homo sapiens)
- Construct: Microsomes were isolated from A375 human melanoma cells; endogenous in cells
- test-details: microsomal assay measuring conversion of ceramide to glucosylceramide by HPLC (GCS IC50)
- condition-context: concentration causing 50% inhibition of glucosylceramide synthase activity
Would you mind telling me the reported pIC50 of each entry?
One number for each entry, as −log10 of the molar value.

Consider the worked cases shown below.
# compound, pIC50
records = [
    ("COCCOCc1ccc(-c2ccc(C3(NC(=O)N[C@]4(C)CN5CCC4CC5)CC3)cc2)cc1", 7.30),
    ("CC1(COc2ccc(-c3ccc(C(C)(C)NC(=O)N4CCN5CCC4CC5)cc3)cc2)COC1", 6.53),
    ("CCC1(NC(=O)N2CCN(c3cccc(-c4ccccc4)c3)CC2)CN2CCC1CC2 (stereo not shown)", 6.54),
]

Now consider the entry below.
Per the records, this compound ( O=C(NC1(c2ccc(-c3ccc(COCc4cccnc4)cc3)cc2)CC1)OC1CN2CCC1CC2 (stereo not shown) ) has pIC50 equal to 8.03

* * *

- target: glucosylceramide synthase (Homo sapiens)
- Construct: Microsomes were isolated from A375 human melanoma cells; endogenous in cells
- test-details: microsomal assay measuring conversion of ceramide to glucosylceramide by HPLC (GCS IC50)
- condition-context: concentration causing 50% inhibition of glucosylceramide synthase activity
experimental-endpoint: log10 of IC50 (log10 of the value in nM)
Reminder: these figures are log10 of reported IC50, in nM before transformation.

# compound, value-measured
data = [
    ("COC1(C(=O)NC2(C)CCN3CCC2CC3)CCN(c2nccc(-c3ccc(F)cc3)n2)CC1 (stereo not shown)", 0.57),
]

Consider the following items and state reported log10 of IC50 for each.
1. COCc1ccc(-c2ncnc(N3CCN(C(=O)NC4(C)CCN5CCC4CC5)CC3C(C)C)n2)cc1 (stereo not shown)
2. CC(C)(NC(=O)OC1CN2CCC1CC2)c1ccc(-c2ccc(CCc3c[nH]nn3)cc2)cc1 (stereo not shown)
3. COCCOCc1ccc(-c2ccc(C3(NC(=O)N[C@@]4(C)CN5CCC4CC5)CC3)cc2)cc1
4. COCCOCc1ccc(-c2ccnc(N3CCC(F)(C(=O)NC4(C)CN5CCC4CC5)CC3)n2)cc1 (stereo not shown)
5. CC1(NC(=O)C2(F)CCN(c3ncnc(OCc4ccc(F)cc4)n3)CC2)CCN2CCC1CC2 (stereo not shown)
6. CN(C)C(=O)c1ccc(-c2ccc(C(C)(C)NC(=O)NC3(C)CN4CCC3CC4)cc2)cc1 (stereo not shown)

Ans:
[2.51, 1.43, 2.97, 1.13, 1.30, 2.45]

Required: log10 of IC50, one value per compound below.
1. CC(C)(NC(=O)OC1CN2CCC1CC2)c1ccc(-c2ccc(OCCCC#N)cc2)cc1 (stereo not shown)
2. COCCOCc1ccc(-c2ccnc(N3CCC(C(=O)NC4(C)CCN5CCC4CC5)CC3)n2)cc1 (stereo not shown)
3. CC1(NC(=O)C2(F)CCN(c3nccc(Oc4ccc(F)cc4)n3)CC2)CCN2CCC1CC2 (stereo not shown)
4. CC1(NC(=O)C2(F)CCN(c3ncnc(Oc4ccc(F)cc4)n3)CC2)CCN2CCC1CC2 (stereo not shown)
5. COCCOc1ccc(-c2ccc(C(C)(C)NC(=O)OC3CN4CCC3CC4)nc2)cc1 (stereo not shown)
6. CC1(NC(=O)C2CCN(c3cccc(-c4ccc(F)cc4)c3)CC2)CCN2CCC1CC2 (stereo not shown)

Ans:
1. 0.98
2. 1.11
3. 0.16
4. 2.23
5. 1.71
6. 0.68

Please supply log10 of IC50 for each of the following items, keeping them in order.
1. CC1(NC(=O)C2(F)CCN(c3nccc(-c4ccc(OCCF)cc4)n3)CC2)CCN2CCC1CC2 (stereo not shown)
2. CC1(NC(=O)C2CCN(c3cccc(-c4ncccn4)c3)CC2)CCN2CCC1CC2 (stereo not shown)
3. CCC1(NC(=O)NC2(c3ccc(-c4ccc(COCc5cccnc5)cc4)cc3)CC2)CN2CCC1CC2 (stereo not shown)

Ans:
1. 0.35
2. 3.26
3. 1.12
